// reported iScore per item
target: HLA-B*0702 (human); assay: iTopia net score
// print number alone

These recorded examples may help you get a feel for the data.
Binder: RARALELEA [cdr2 244-252 RARALELEA]
iScore: 0.08
--
Binder: AVQTSRAAA [cdr2 378-386 AVQTSRAAA]
iScore: 0.153
--
Binder: TPPEYKALF [cdr2 418-426 TPPEYKALF]
iScore: 0.027
--
Binder: TSRAAAKDL [cdr2 381-389 TSRAAAKDL]
iScore: 0.067
--
Binder: ENSELEQQL [cdr2 229-237 ENSELEQQL]
iScore: 0.05

Identify measured iScore corresponding to TGAYRARAL [cdr2 240-248 TGAYRARAL]
0.082

Identify measured iScore corresponding to AVKQRGISL [cdr2 337-345 AVKQRGISL]
0.293

Identify measured iScore corresponding to EVAEMRQML [cdr2 253-261 EVAEMRQML]
0.077
